Overview of reported tumor/tissue cancer/ liver across a group of compounds:
System: nitrosoamine-induced pancreatic cancer
Test: laser irradiation to the extirpated organ (excited fluorescent spectrum, N2-PLS measurement), tumor to tissue ratio
Assay type: in vivo, Golden hamsters
Details: i.v. 25 mg/kg bodyweight, organs extirpated at 24 hours after administration
Reply with the value as a number alone.

Worked examples, 2 compounds total:
compound	measuredResult
COC(C)C1=C(C)C2=Cc3c(C(C)OC)c(C)c4[n]3[Ga][n]3c(c(C)c(CCC(=O)NC(CC(=O)O)C(=O)O)c3=CC3=NC(=C4)C(C)=C3CCC(=O)NC(CC(=O)O)C(=O)O)=CC1=N2 (stereo not shown) [(4) C1-Ga-DP-diAsp]	1.19
CCCCCCOC(C)C1=C(C)C2=Cc3c(C(C)OCCCCCC)c(C)c4[n]3[Ga][n]3c(c(C)c(CCC(=O)NC(CC(=O)O)C(=O)O)c3=CC3=NC(=C4)C(C)=C3CCC(=O)NC(CC(=O)O)C(=O)O)=CC1=N2 (stereo not shown) [(10) C6-Ga-DP-diAsp]	5.33

-- ask Returns the measured tumor/tissue cancer/ liver for the input compound. Input: CC(C)=CCCC(C)CCOC(C)C1=C(C)C2=Cc3c(C(C)OCCC(C)CCC=C(C)C)c(C)c4[n]3[Ga][n]3c(c(C)c(CCC(=O)NC(CC(=O)O)C(=O)O)c3=CC3=NC(=C4)C(C)=C3CCC(=O)NC(CC(=O)O)C(=O)O)=CC1=N2 (stereo not shown) [(18) C10(Citro)-Ga-DP-diAsp]
-- reply 11.37

-- ask Returns the measured tumor/tissue cancer/ liver for the input compound. Input: CCCCCOC(C)C1=C(C)C2=Cc3c(C(C)OCCCCC)c(C)c4[n]3[Ga][n]3c(c(C)c(CCC(=O)NC(CC(=O)O)C(=O)O)c3=CC3=NC(=C4)C(C)=C3CCC(=O)NC(CC(=O)O)C(=O)O)=CC1=N2 (stereo not shown) [(9) C5-Ga-DP-diAsp]
-- reply 4.07
